tested on: STEME; assay: Pre-emergence biological efficacy (Table 3); type: in vivo; conditions: 312 h, after 13 days, read-out: evaluation (100=total damage to plant; 0=no damage to plant)
Item-by-item account of pest or weed control at 1000 g/ha
Reply numerically in %, unit not repeated.

Known results for molecules:
[
  {
    "MOLECULE": "Nc1ccc(Cl)c(C(F)(F)C(=O)O)c1 [Compound 1-63]",
    "SYSTEM NAME": "STEME",
    "UNIT TAG": "%",
    "pest or weed control at 1000 g/ha": 0
  },
  {
    "MOLECULE": "O=C(O)C(F)(F)c1c(Cl)ccc2c1OC(F)(F)O2 [Compound 1-389]",
    "SYSTEM NAME": "STEME",
    "UNIT TAG": "%",
    "pest or weed control at 1000 g/ha": 60
  },
  {
    "MOLECULE": "CSc1c(Cl)cccc1C(F)(F)C(=O)O [Compound 1-356]",
    "SYSTEM NAME": "STEME",
    "UNIT TAG": "%",
    "pest or weed control at 1000 g/ha": 30
  },
  {
    "MOLECULE": "COc1cccc(C(F)(F)C(=O)O)c1Cl [Compound 1-209]",
    "SYSTEM NAME": "STEME",
    "UNIT TAG": "%",
    "pest or weed control at 1000 g/ha": 60
  },
  {
    "MOLECULE": "N#Cc1c(Cl)cccc1C(F)(F)C(=O)O [Compound 1-262]",
    "SYSTEM NAME": "STEME",
    "UNIT TAG": "%",
    "pest or weed control at 1000 g/ha": 100
  },
  {
    "MOLECULE": "O=C(O)C(F)(F)c1c(Cl)cccc1[N+](=O)[O-] [Compound 1-67]",
    "SYSTEM NAME": "STEME",
    "UNIT TAG": "%",
    "pest or weed control at 1000 g/ha": 0
  },
  {
    "MOLECULE": "COc1c(F)ccc(F)c1C(F)(F)C(=O)O [Compound 1-314]",
    "SYSTEM NAME": "STEME",
    "UNIT TAG": "%",
    "pest or weed control at 1000 g/ha": 0
  },
  {
    "MOLECULE": "COc1c(Cl)ccc(F)c1C(F)(F)C(=O)O [Compound 7-325]",
    "SYSTEM NAME": "STEME",
    "UNIT TAG": "%",
    "pest or weed control at 1000 g/ha": 30
  },
  {
    "MOLECULE": "O=C(O)C(F)(F)c1cccc2nccnc12 [Compound 1-409]",
    "SYSTEM NAME": "STEME",
    "UNIT TAG": "%",
    "pest or weed control at 1000 g/ha": 30
  },
  {
    "MOLECULE": "Nc1cc(Cl)cc(C(F)(F)C(=O)O)c1Cl [Compound 1-235]",
    "SYSTEM NAME": "STEME",
    "UNIT TAG": "%",
    "pest or weed control at 1000 g/ha": 30
  }
]

Dear colleague, please send me the reported pest or weed control at 1000 g/ha for Nc1c(Cl)cc(Cl)c(Cl)c1C(F)(F)C(=O)O [Compound 1-81] when you can.
20

Dear colleague, please send me the reported pest or weed control at 1000 g/ha for CCOC(=O)C(F)(F)c1c(F)ccc(F)c1O [Compound 3-297] when you can.
0

Dear colleague, please send me the reported pest or weed control at 1000 g/ha for Nc1c(Cl)ccc(Cl)c1C(F)(F)C(=O)O [Compound 7-254] when you can.
30
